System: MCF7 breast
test-protocol: NCI tumour cell line growth inhibition, 48 h; in the data active = GI50 below about 0.43 µM; inactive = the rest
Permitted responses: true (1) (active), false (0) (inactive)

Worked cases, answers included:
1) CC1(C)N=C(N)N=C(N)N1c1ccc(CNC(=O)Nc2ccc(S(=O)(=O)F)c(Cl)c2)c(Cl)c1    false (0)
2) COc1ccc2cc(-c3cnc4nonc4n3)ccc2c1    true (1)
3) COC[C@H](NC(=O)c1cnc(C)s1)C(=O)N[C@@H](COC)C(=O)N[C@@H](Cc1ccccc1)C(=O)[C@@]1(C)CO1    false (0)
4) CCCc1nn(C)c2c(=O)[nH]c(-c3cc(S(=O)(=O)N4CCN(C)CC4)ccc3OCC)nc12    false (0)
5) Cc1c(Cn2c(C)nc3c(C(=O)O)cc(N4CCOCC4)cc32)cccc1C(F)(F)F    false (0)
6) CN(C)c1ccc(/C=N/NC(N)=S)nc1    false (0)
7) FC1(F)ON2CCc3ccccc3C2[C@H]1c1ccccc1 (stereo partly drawn)    false (0)
8) COc1cnc2c(c1)C(=O)c1c-2n(CCCN2CCCC2)c(=O)c2cc([N+](=O)[O-])ccc12    true (1)

Turning to the following compound.
Record request — test call for NC(=S)N/N=C/c1ccc(OC(=O)COc2cc(Cl)c(Cl)cc2Cl)cn1
false (0)

====

Assign TGI to each entry below.
Tested on: TK-10 renal
test-protocol: NCI tumour cell line growth inhibition, 48 h

1. CN(C)c1ccc(/C=c2\sc3nnc(-c4ccco4)n3c2=O)cc1    > 100 µM

For every item below, please supply its TGI.
1. Cc1ccc2nc3ccccc3c(C3C4C(=O)N(c5ccc(F)cc5)C(=O)C4ON3C(C(N)=O)c3ccccc3)c2c1 (centres undefined)
2. Cc1ccc(S(=O)(=O)n2cc(C=O)c(-c3cn(S(=O)(=O)c4ccc(C)cc4)cc3-c3cn(S(=O)(=O)c4ccc(C)cc4)cc3C=O)c2)cc1
3. O=c1[nH]c(NCc2cccnc2)nc2nc[nH]c12
4. COc1ccc2cc(-c3cnc4nonc4n3)ccc2c1
5. Cc1ccc(CNc2ccc3nc(CCC4CCCCC4)[nH]c3c2)cc1
6. COc1ccc(NC(=O)Oc2ccc3c(C)cc(=O)oc3c2)c(OC)c1 (tested in a mixture with another compound)

["> 100 µM", "72 µM", "> 100 µM", "> 100 µM", "10.4 µM", "> 100 µM"]

For every item below, please supply its TGI.
1. O=C(Cc1ccc2ccccc2c1)NCc1ccc(C(=O)NCCc2ccccc2)cc1
2. COc1ccc(Nc2nc(NCCNc3ccnc4cc(Cl)ccc34)nc(N3CCOCC3)n2)cc1

1. > 100 µM
2. 20.6 µM

====

Assign TGI to each entry below.
Tested on: SN12C renal
test-protocol: NCI tumour cell line growth inhibition, 48 h

Answered examples (3):
1) O=C(O)/C=C/c1ccc(Oc2ccccc2C(=O)O)o1    > 10 µM
2) CCOC(=O)c1c(O)cn2c1[nH]c1cccc3cccc2c31    > 100 µM
3) CSC(=NC(=O)c1ccccc1Cl)SCCSC(=NC(=O)c1ccccc1Cl)SC    > 100 µM

For every item below, please supply its TGI.
1. Cc1ccc(S(=O)(=O)ON2C(=O)c3cccc4cc([N+](=O)[O-])cc(c34)C2=O)cc1
2. COC(=O)[C@H](Cc1ccccc1)NC(=O)c1ccc(CNC(=O)/C=C/c2ccc(OCc3ccccc3)cc2)cc1
3. C#CC1(O)CCC2[C@@H]3CCc4cc(Oc5nc(F)nc(-c6c(C)c(C(=O)OCC)n7ccccc67)n5)ccc4C3CC[C@@]21C (stereo partly specified)
4. CCCCCCCCCCCCSC(=S)c1c(C)[nH]n(-c2ccccc2)c1=O
5. COc1c2c(c3c(c1OC)c(=O)c1ccccc1n3C)OCO2
6. NC1=Nc2ccccc2Sc2nncn21

> 100 µM
32.6 µM
> 100 µM
> 50 µM
> 100 µM
> 100 µM

====

Test system: OVCAR-8 ovarian
test-protocol: NCI tumour cell line growth inhibition, 48 h; in the data active = GI50 below about 0.43 µM; inactive = the rest
Permitted responses: active, inactive

Worked cases, answers included:
1) CC1=C([Te]c2ccccc2)C(=O)c2ccccc2C1=O    active
2) CCOC(=O)C(=Cc1ccc(C#N)cc1)C(=O)OCC    inactive
3) COc1cc(-c2nn(-c3cccc(NC(=O)Nc4ccc(Cl)c(C(F)(F)F)c4)c3)cc2-c2ccncc2)ccc1Cl    inactive

Record request — test call for COc1ccc2c(c1)CCC1C2CC[C@@]2(C)C1CC[C@@H]2NC(=O)Cc1ccc(O)c(O)c1 (some centres undefined)
inactive

Record request — test call for Fc1cccc(COc2ccc(Nc3ncnc4onc(-c5ccccc5)c34)cc2)c1
active

Record request — test call for CSc1cc([C@@H]2C[C@H]2c2ccc(Cl)cc2)on1
inactive

Record request — test call for CCN1CCN(CCNc2nccc(-c3c(-c4ccc(F)c(O)c4)nc4occn34)n2)S1(=O)=O
inactive

Record request — test call for COc1cnc2c(c1)C(=O)c1c-2n(CCCN2CCCC2)c(=O)c2cc([N+](=O)[O-])ccc12
active

Record request — test call for CC1=C(C#N)C23C(=O)N(c4ccccc4)C(=O)C2=C(O)C=CC3(O)N1Cc1ccc(Cl)cc1Cl (centres undefined)
inactive

====

Assign TGI to each entry below.
Tested on: UACC-257 melanoma
test-protocol: NCI tumour cell line growth inhibition, 48 h

Answered examples (5):
1. COc1ccc(-c2ncnc3c2ncn3CC#CCCl)cc1    21.8 µM
2. O=S1(=O)c2ccccc2N(O)C2=NCCN21    > 100 µM
3. Oc1ccccc1-c1nn(CNc2ccc(Cl)cc2)c(=S)o1    47.9 µM
4. COc1ccc(/C=N\N(C)Cc2cccc3ccsc23)cc1    > 100 µM
5. CCOP(=O)(CC(=O)C1CC1)OCC    > 100 µM

For every item below, please supply its TGI.
1. CCN1CCN(CCNc2nccc(-c3c(-c4ccc(F)c(O)c4)nc4occn34)n2)S1(=O)=O
2. COc1ccc2cc(-c3cnc4nonc4n3)ccc2c1

1: > 100 µM; 2: > 100 µM

====

System: OVCAR-4 ovarian
test-protocol: NCI tumour cell line growth inhibition, 48 h
Assign TGI to each entry below.

1. COc1cc(-c2nn(-c3cccc(NC(=O)Nc4ccc(Cl)c(C(F)(F)F)c4)c3)cc2-c2ccncc2)ccc1Cl    25.6 µM
2. Cc1nc(OCc2ccccc2)c2ncn(CCO)c2n1    > 100 µM
3. COC(=O)Nc1nc2ccc(NS(=O)(=O)c3cccs3)cc2[nH]1    > 100 µM

For every item below, please supply its TGI.
1. ClCc1nc2ccccc2[nH]1
2. Cc1cc2c(F)c(Oc3ncnc(Nc4ccc(N5C[C@@H](C)N[C@@H](C)C5)cc4)c3C#N)cc(F)c2[nH]1
3. CN1CCC2(CC1)SSC1(CCN(C)CC1)S2
4. COc1cc(CCC[P+](c2ccccc2)(c2ccccc2)c2ccccc2)c(OC)c2c1OCO2
5. CC(C)(C)OC(=O)C1C(=O)NC(=O)CC1CC(OCc1ccccc1)C(OCc1ccccc1)C(COCc1ccccc1)OCc1ccccc1 (stereo not drawn)

> 100 µM
6.04 µM
> 100 µM
16.1 µM
> 100 µM

For every item below, please supply its TGI.
1. COc1ccc(C2SCC(=O)N2c2ccc(-n3c(-c4ccccc4)nc4ccccc4c3=O)cc2)cc1 (stereo not drawn)
2. Cc1c(Cn2c(C)nc3c(C(=O)O)cc(N4CCOCC4)cc32)cccc1C(F)(F)F

1. > 100 µM
2. > 100 µM

====

Tested on: XF 498 CNS
test-protocol: NCI tumour cell line growth inhibition, 48 h
Assign TGI to each entry below.
One number for each entry, in µM.

1. c1ccc2c3c(ccc2c1)-c1[nH]ncc1CCO3    79.8
2. O=C(O)Cc1cccc2c(=O)cc(-c3ccccc3)oc12    89.7
3. CC(C)(C)c1ccc2c(c1)OP1(Oc3c(Cl)cc(Cl)c4cccnc34)(O2)Oc2ccc(C(C)(C)C)cc2O1    26.7
4. O=C1C2CCN(CC2)C1CN1CCOCC1 (configuration not stated)    14.5
5. CC(=O)OCc1c(O)c2c([nH]c1=O)CCc1ccccc1-2    104

The record that follows has no TGI shown yet.
Read off the recorded TGI for COc1ccc(N2C(=O)C3CC(c4ccc(Br)cc4)c4c([nH]c5ccccc45)C3C2=O)cc1 (configuration not stated)
32

====

System: HCC-2998 colon
test-protocol: NCI tumour cell line growth inhibition, 48 h
Assign TGI to each entry below.

1. C=C1C(C(=O)OC)[C@H]1C(=O)OC (stereo not given in full)    > 100 µM
2. COc1ccc2c(c1)CCC1C2CC[C@@]2(C)C1CC[C@@H]2NC(=O)Cc1ccc(O)c(O)c1 (stereo not given in full)    28.2 µM
3. Nc1nc(Cl)cc(NCC2(CCO)CCC2)n1    > 100 µM
4. CO/C=C(/C(=O)OC)[C@@H]1C[C@@H]1c1ccc2ccccc2c1    50.5 µM

Read off the recorded TGI for CC(C)(C)C1=CC(=N/N=c2\scc(-c3ccccc3)n2-c2ccccc2)C=C(C(C)(C)C)C1=O
> 100 µM

Values from PubChem BioAssay (NCI)
